Please provide measured self-cleavage kobs at 160 uM GlcN6P for the entries that follow.
B1: glmS ribozyme (parent)
chain: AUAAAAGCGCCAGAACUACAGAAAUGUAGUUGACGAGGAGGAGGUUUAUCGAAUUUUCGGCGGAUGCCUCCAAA

Variants of: B1
Assay: self-cleavage kobs at 160 uM GlcN6P; higher = faster cleavage; RNA array
Settings: with glucosamine-6-phosphate
This sample holds only a part of the variants without activity.

> print(dat)
         var  experimental.value
1  U55A C67G        0.000104 s⁻¹
2  U47C U56G        0.000196 s⁻¹

Okay, here is my list. What is self-cleavage kobs at 160 uM GlcN6P for each of these?
1. G9A U30C A42C C70U
2. C8U A52G
3. U46A G60C
4. A12G A36C
5. C8G G44C

Data returned:
["< 1e-05 s⁻¹", "< 1e-05 s⁻¹", "< 1e-05 s⁻¹", "< 1e-05 s⁻¹", "< 1e-05 s⁻¹"]

Okay, here is my list. What is self-cleavage kobs at 160 uM GlcN6P for each of these?
1. G37U G51C A52U G63U
2. U30G G62C
3. U30C G66U
4. A6C C8U C10G A12U G38U
5. G35C C71A

Data returned:
["< 1e-05 s⁻¹", "< 1e-05 s⁻¹", "< 1e-05 s⁻¹", "< 1e-05 s⁻¹", "< 1e-05 s⁻¹"]
